Target: biliverdin IX beta reductase (BLVRB) (Homo sapiens)
Construct: BLVRBWT and BLVRBS111L open reading frames were PCR-amplified and directionally-cloned into pGEX-KG expression vector; GST (N, cleaved yes); LB medium, IPTG induction
Sequence (P30043 whole entry): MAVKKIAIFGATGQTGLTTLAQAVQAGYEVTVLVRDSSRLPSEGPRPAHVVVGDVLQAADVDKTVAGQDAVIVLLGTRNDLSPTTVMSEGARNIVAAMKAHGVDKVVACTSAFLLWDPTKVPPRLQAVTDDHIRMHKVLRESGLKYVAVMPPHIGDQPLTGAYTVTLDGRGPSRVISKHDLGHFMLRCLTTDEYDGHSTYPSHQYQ
Assay: BLVRB flavin reductase inhibition assay (FMN/NADPH, absorbance at 340 nm)
Details: 300 nM recombinant BLVRB, 200 μM FMN, 100 μM NADPH, 100 mM potassium phosphate pH 7.6, 37° C.; read-out: IC50, concentration of inhibitor needed to inhibit the target enzyme by 50% (flavin reductase activity of BLVRB)
measureName: IC50 (µM)
Write the answer as a number in µM, unit excluded.

Query: Which IC50 value is on record for COc1ccc2nc3cc(Cl)ccc3c(Nc3ccc(O)c(CN4CCN(C)CC4)c3)c2c1 ?
Result: 30.7
